Source: PubChem BioAssay (NCI)

- System: NCI-H322M lung
- assay-info: NCI-60 one-dose screen, 48 h
- test-parameters: 10 µM unless noted
Compounds without any hit were thinned out: in the full panel of roughly 83,000, 20% have a hit. Activity calls are given as the source filed them. How the source made its calls: active means growth percent below 10; inactive means the rest.
Tick one outcome: active, inactive

Would you please look over these solved cases?
In [3]: df
Out[3]:
                                   molecule  classification
0  Cc1ccc(/C=C2\Oc3cc(OCC(=O)c4ccc(Cl)cc4)ccc3C2=O)cc1        inactive
1       CSc1ccc(N=C=C(c2ccccc2)c2ccccc2)cc1        inactive
2                  C(=N\Nc1ccccn1)/c1ccccn1        inactive

Asked: Each molecule tested received a call. Report the one for O=C(O)c1cn(C2CC2)c2cc(N3CCN(Cc4nc5c(cnn5-c5ccc([N+](=O)[O-])cc5)c(=O)[nH]4)CC3)c(F)cc2c1=O .
Given back: inactive

Asked: Test call for this molecule, please: Cc1cc(Nc2nc(N3CCNCC3)nc3ccccc23)n[nH]1
Given back: inactive

Asked: Query: recorded result category for CC/C=C\C[C@H](F)C/C=C1/C(=O)C=C[C@@H]1C/C=C\CCCC(=O)O in this test
Given back: inactive

Asked: // param item: CC1=C(NCCN2CCCC2)C(=O)c2c(OCc3ccc(F)c(Cl)c3)cccc2C1=O ; yields the recorded call
Given back: inactive

Asked: Outcome logged for C#Cc1nc(Nc2cc(C)[nH]n2)c2ccccc2n1 in this assay:
Given back: active
